Just for reference, patent US5298494A is where these values come from.

system: T lymphocytes (normal mouse spleen cells) stimulated with ConA; experiment: Mouse Spleen Cell ConA Blastogenesis Assay; format: cell-based, mouse (C57Bl/6); conditions: Mus musculus, T-lymphocyte, ConA 4 ug/ml; compound 0.01 ug/ml; read-out: % change from control, ConA blastogenic response
quantity.measured: inhibition at 0.01 µg/mL (%)
One number for each entry, in %.

Known inhibition at 0.01 µg/mL results, listed for orientation:
Asked: What inhibition at 0.01 µg/mL value was documented for this molecule, CCCCCCCO[C@@H]1[C@@H](CO)O[C@@]2(CO)OC(C)(C)O[C@@H]12 ?
Given back: -14

Asked: What inhibition at 0.01 µg/mL value was documented for this molecule, CCCCC/C=C\COC[C@H]1O[C@@]2(OC)COC(C)(C)O[C@H]2[C@@H]1OC/C=C\CCCCC ?
Given back: 0

Provide the reported inhibition at 0.01 µg/mL of each entry below, same order.
1. CCCCCCCC(=O)OC[C@H]1O[C@@]2(OC)COC(C)(C)O[C@H]2[C@@H]1OC(=O)CCCCCCC
2. CCCCCC#CCOC[C@H]1O[C@@]2(OC)COC(C)(C)O[C@H]2[C@@H]1OCC#CCCCCC
3. CCCCC/C=C\COC[C@H]1O[C@](COC/C=C\CCCCC)(OC)[C@@H](O)[C@@H]1O
4. CCCCCCCOC[C@H]1O[C@](COCC)(OC)[C@@H](OCC)[C@@H]1O

Given back:
-42
14
-12
35

Provide the reported inhibition at 0.01 µg/mL of each entry below, same order.
1. CCCCCCCO[C@@H]1[C@@H](CO)O[C@@]2(OC)COC(C)(C)O[C@@H]12
2. CCCCCCCOC[C@H]1O[C@@]2(OC)COC(C)(C)O[C@H]2[C@@H]1O
3. CCCCCCCC(=O)O[C@@H]1[C@@H](CO)O[C@@]2(OC)COC(C)(C)O[C@@H]12
4. CCCCCCCC(=O)OC[C@H]1O[C@@]2(OC)COC(C)(C)O[C@H]2[C@@H]1O
5. CCCCC/C=C/COC[C@H]1O[C@@]2(OC)COC(C)(C)O[C@H]2[C@@H]1OC/C=C/CCCCC

Given back:
-14
14
-29
-37
4

* * *

system: T lymphocytes (normal mouse spleen cells) stimulated with ConA; test: Mouse Spleen Cell ConA Blastogenesis Assay; assay type: cell-based, mouse (C57Bl/6); details: Mus musculus, T-lymphocyte, ConA 1 ug/ml; compound 0.01 ug/ml; read-out: % change from control, ConA blastogenic response
quantity.measured: inhibition at 0.01 µg/mL
Phrase the answer as number then unit, nothing more needed.

Known inhibition at 0.01 µg/mL results, listed for orientation:
Asked: What inhibition at 0.01 µg/mL value was documented for this compound, CCCCCCCOC[C@H]1O[C@@]2(OC)COC(C)(C)O[C@H]2[C@@H]1O [Ia] ?
Given back: 19%

Asked: What inhibition at 0.01 µg/mL value was documented for this compound, CCCCCCCC(=O)OC[C@H]1O[C@@]2(OC)COC(C)(C)O[C@H]2[C@@H]1OC(=O)CCCCCCC [Ij] ?
Given back: 100%

Asked: What inhibition at 0.01 µg/mL value was documented for this compound, CCCCCCCO[C@@H]1[C@@H](CO)O[C@@]2(OC)COC(C)(C)O[C@@H]12 [Ic] ?
Given back: -8%

Asked: What inhibition at 0.01 µg/mL value was documented for this compound, CCCCCCCC(=O)OC[C@H]1O[C@@]2(OC)COC(C)(C)O[C@H]2[C@@H]1O [Ii] ?
Given back: -7%

Asked: What inhibition at 0.01 µg/mL value was documented for this compound, CCCCC/C=C\COC[C@H]1O[C@@]2(OC)COC(C)(C)O[C@H]2[C@@H]1OC/C=C\CCCCC [If] ?
Given back: -6%

Asked: What inhibition at 0.01 µg/mL value was documented for this compound, CCCCCC#CCOC[C@H]1O[C@@]2(OC)COC(C)(C)O[C@H]2[C@@H]1OCC#CCCCCC [Id] ?
Given back: 10%

Provide the reported inhibition at 0.01 µg/mL of each entry below, same order.
1. CCCCCCCOC[C@H]1O[C@](COCC)(OC)[C@@H](OCC)[C@@H]1O [Ib]
2. CCCCCCCO[C@@H]1[C@@H](CO)O[C@@]2(CO)OC(C)(C)O[C@@H]12 [Ik]
3. CCCCCCCC(=O)O[C@@H]1[C@@H](CO)O[C@@]2(OC)COC(C)(C)O[C@@H]12 [Ih]
4. CCCCC/C=C/COC[C@H]1O[C@@]2(OC)COC(C)(C)O[C@H]2[C@@H]1OC/C=C/CCCCC [Ie]

Given back:
["57%", "-8%", "-32%", "22%"]

Asked: What inhibition at 0.01 µg/mL value was documented for this compound, CCCCC/C=C\COC[C@H]1O[C@](COC/C=C\CCCCC)(OC)[C@@H](O)[C@@H]1O [Ig] ?
Given back: -10%

* * *

test system: T lymphocytes (normal mouse spleen cells) stimulated with ConA; assay: Mouse Spleen Cell ConA Blastogenesis Assay; assay type: cell-based, mouse (C57Bl/6); settings: Mus musculus, T-lymphocyte, ConA 4 ug/ml; compound 0.1 ug/ml; read-out: % change from control, ConA blastogenic response
quantity.measured: inhibition at 0.1 µg/mL (%)
One number for each entry, in %.

Provide the reported inhibition at 0.1 µg/mL of each entry below, same order.
1. CCCCCCCO[C@@H]1[C@@H](CO)O[C@@]2(CO)OC(C)(C)O[C@@H]12
2. CCCCCCCO[C@@H]1[C@@H](CO)O[C@@]2(OC)COC(C)(C)O[C@@H]12
3. CCCCC/C=C\COC[C@H]1O[C@](COC/C=C\CCCCC)(OC)[C@@H](O)[C@@H]1O
4. CCCCCCCC(=O)O[C@@H]1[C@@H](CO)O[C@@]2(OC)COC(C)(C)O[C@@H]12
5. Cc1cn([C@H]2C[C@H](N=[N+]=[N-])[C@@H](CO)O2)c(=O)[nH]c1=O [AZT, reference compound]
6. CCCCCCCC(=O)OC[C@H]1O[C@@]2(OC)COC(C)(C)O[C@H]2[C@@H]1O

Given back:
[8, 8, 9, -14, 99, -28]

Provide the reported inhibition at 0.1 µg/mL of each entry below, same order.
1. CCCCC/C=C\COC[C@H]1O[C@@]2(OC)COC(C)(C)O[C@H]2[C@@H]1OC/C=C\CCCCC
2. CCCCC/C=C/COC[C@H]1O[C@@]2(OC)COC(C)(C)O[C@H]2[C@@H]1OC/C=C/CCCCC

Given back:
23
9

* * *

tested on: T lymphocytes (normal mouse spleen cells) stimulated with ConA; experiment: Mouse Spleen Cell ConA Blastogenesis Assay; type: cell-based, mouse (C57Bl/6); settings: Mus musculus, T-lymphocyte, ConA 1 ug/ml; compound 100 ug/ml; read-out: % change from control, ConA blastogenic response
quantity.measured: inhibition at 100 µg/mL (%)
Numbers only, in %.

Asked: What inhibition at 100 µg/mL value was documented for this compound, CCCCCC#CCOC[C@H]1O[C@@]2(OC)COC(C)(C)O[C@H]2[C@@H]1OCC#CCCCCC ?
Given back: 99

Asked: What inhibition at 100 µg/mL value was documented for this compound, CCCCCCCC(=O)OC[C@H]1O[C@@]2(OC)COC(C)(C)O[C@H]2[C@@H]1O ?
Given back: 27

Asked: What inhibition at 100 µg/mL value was documented for this compound, CC1(C)OCC(C2OC3OC(C)(C)OC3C2NCCCO)O1 (stereo not shown) ?
Given back: 95

Field: next compound
Asked: What inhibition at 100 µg/mL value was documented for this compound, Cc1cn([C@H]2C[C@H](N=[N+]=[N-])[C@@H](CO)O2)c(=O)[nH]c1=O [AZT, reference compound] ?
Given back: 99

* * *

system: T lymphocytes (normal mouse spleen cells) stimulated with ConA; assay: Mouse Spleen Cell ConA Blastogenesis Assay; format: cell-based, mouse (C57Bl/6); conditions: Mus musculus, T-lymphocyte, ConA 4 ug/ml; compound 25 ug/ml; read-out: % change from control, ConA blastogenic response
Lab note: anything with inhibition at 25 µg/mL at or over 80% counts as yes; the rest go in no.

Known results for compounds:
Asked: Is the recorded value of inhibition at 25 µg/mL equal to or greater than 80% for this compound? CC1(C)OC2OC3C(CSCCN4CCCC4)OC(C)(C)OC3C2O1 (stereo not drawn)
Given back: no

Asked: Is the recorded value of inhibition at 25 µg/mL equal to or greater than 80% for this compound? Cc1cn([C@H]2C[C@H](N=[N+]=[N-])[C@@H](CO)O2)c(=O)[nH]c1=O [AZT, reference compound]
Given back: yes

New cases:
Asked: Is the recorded value of inhibition at 25 µg/mL equal to or greater than 80% for this compound? CCCCCCCOC[C@H]1O[C@](COCC)(OC)[C@@H](OCC)[C@@H]1O
Given back: yes

Asked: Is the recorded value of inhibition at 25 µg/mL equal to or greater than 80% for this compound? CCCCCCCOCCCO[C@@H]1[C@H]2OC(C)(C)O[C@H]2O[C@@H]1[C@H](O)CO
Given back: no

Asked: Is the recorded value of inhibition at 25 µg/mL equal to or greater than 80% for this compound? CCCCCCCOC[C@H]1O[C@@]2(OC)COC(C)(C)O[C@H]2[C@@H]1O
Given back: yes
